Reference source for all entries: ChEMBL document CHEMBL1132849

I'd be grateful if you could share measured pKa for these entries.
# protocol: pKa was evaluated
# Assay type: physicochemical
Answer with the value's number alone.

Cc1cc(OCC/C=N/N=C(N)N)cc(OS(=O)(=O)c2ccccc2Cl)c1 yielded pKa of 8.71

Cc1cc(OCC/C=N/N=C(N)N)cc(OS(=O)(=O)c2ccccc2C#N)c1 yielded pKa of 8.84

====

# protocol: Partition coefficient ( LogP) of the compound
# Format: physicochemical
# condition_parameters: octanol/water
measured_parameter: logP
Answer with the value's number alone.

Cc1cc(OCC/C=N/N=C(N)N)cc(OS(=O)(=O)c2ccccc2Cl)c1 yielded logP of 2.34

Cc1cc(OCC/C=N/N=C(N)N)cc(OS(=O)(=O)c2ccccc2C#N)c1 yielded logP of 2.11

====

I'd be grateful if you could share measured half-life for these entries.
# protocol: The compound was tested for time taken to decrease, half of its initial concentration in dog plasma.
# Format: ADME, organism-based, Canis lupus familiaris
Write the figure, then the unit, nothing else.

Cc1cc(OCC/C=N/N=C(N)N)cc(OS(=O)(=O)c2ccccc2C#N)c1 yielded half-life of 19 h

Cc1cc(OCC/C=N/N=C(N)N)cc(OS(=O)(=O)c2ccccc2Cl)c1 yielded half-life of 21 h

====

# protocol: Percent oral bioavailability of perorally administered compound (30 mg/kg) was tested
# Type: ADME, organism-based
# condition_parameters: in vivo, read-out: Bioavailabiility
measured_parameter: bioavailability (%)
Numbers only here, please. The scale is %.

Cc1cc(OCC/C=N/N=C(N)N)cc(OS(=O)(=O)c2ccccc2C#N)c1 yielded bioavailability of 21

====

I'd be grateful if you could share measured Cmax for these entries.
# protocol: The compound was tested for maximum concentration ( Cmax ) in dog plasma.
# Format: ADME, organism-based, Canis lupus familiaris
Write the figure, then the unit, nothing else.

Cc1cc(OCC/C=N/N=C(N)N)cc(OS(=O)(=O)c2ccccc2Cl)c1 yielded Cmax of 1800 nM

Cc1cc(OCC/C=N/N=C(N)N)cc(OS(=O)(=O)c2ccccc2C#N)c1 yielded Cmax of 900 nM

====

measured_parameter: pKi
Keep in mind that pKi stands for -log10 of concentration in molar terms.

# lookup: Cc1cc(OCC/C=N/N=C(N)N)cc(OS(=O)(=O)c2cccc3ccccc23)c1 on Prothrombin (Homo sapiens, UniProt P00734), pKi = 7.36

# lookup: Cc1cc(OCC2(/C=N/N=C(N)N)CC2)cc(OS(=O)(=O)c2ccccc2C#N)c1 on Prothrombin (Homo sapiens, UniProt P00734), pKi = 7.40

# lookup: COc1cc(CCC/C=N/N=C(N)N)cc(OS(=O)(=O)c2ccccc2Cl)c1 on Prothrombin (Homo sapiens, UniProt P00734), pKi = 6.00

# lookup: Cc1cc(OCC/C=N/N=C(N)N)cc(OS(=O)(=O)c2cccc(Cl)c2Cl)c1 on Prothrombin (Homo sapiens, UniProt P00734), pKi = 8.03
